assay: yeast display, Sf9 membrane polyspecificity reagent, FACS + sequencing; frameworks hold sequencing errors
metric: polyreactivity (PSR sort gate)

| sequence code | polyreactivity (PSR sort gate) |
| --- | --- |
| QVQLVESGGGLVQAGGSLRLSCAASGLNFYDNVMGWSRPAPGKEREFVAAITSIGGSTYYADSVKGRFTISRDNAMNTVYLQMISLKPEDTAVYYCIGKSKYYSPNYDYWGQGTQVTVSS | low polyreactivity |
| QVQLVESGGGLVQAGGSLRLSCAASGSTFYYYAMGWYRQAPGKERELVAAIDWSGESTYYADSVKGRFTISRDNAKNTVYLQMNSLKPEDTAVYYCAAVRSAQRWRRYYYWGQGTQVTVSS | low polyreactivity |
| QVQLVESGGGLVQAGGSLRLSCAASGITFDIYAMGWYRQAPGKVRELVAAISGSDGSTYYADSVKGRFTISRDNAKNTVYLQMNSLKPEDTAVYYGAAESEYAGTYESDYWGLGTQVTVSS | low polyreactivity |
| QVQLVESGGGLVQAGGRLRLSCAASGRTFKLYAMGWYRQAPGKERELVAAISGRGGSTYYADSVKGRFTISRDNAKNTVYLQMNSLKPEDTAVYYCNWYGKYEYWGQGTQVTVSS | high polyreactivity |
| HVQLVESGGGFVQAGGSLRLICAASVRNFDVYSMGWYRQAPGKERELVAAISRRGGSTYYADSVKGRFTISRDNAKNTVYLQMNRLKPEDTAVYYCAAQSRQAYMTYGYWGLGTQVTVSS | high polyreactivity |
| QVHLVESGGGLVQAGGSLRLSCAASGSTFGVYAMGWYRQAPAKERELVAAISSSTGSTYYADSVKGRFTISRDNEKNTVYLQMNSLKPEDTAVYFCAAAGYGKVRGDYWGQGSQVTVSS | low polyreactivity |
| QVHLVESGGGLVQAGGSLRLSCAASGSIFKPYTMRWYRQAPGTERELVAVITRRGGSTYYADSVKGRFTISRDNAKNTVYLQMNSLKPEDTAVYYCAAEYDYYGWWNDYWGQGTQVTVSS | high polyreactivity |
| QVQLVESGGGLVQAGGSLRLSCAASGRIFFGYAMGWYRLAPGKERELVAAISYGGGRTYYADSVKGRFTISRDNAKNTVSLQMNSLKPEDTAVDYCNKRVTGGSWSPGHYRYNYWGQGSQVTVSS | high polyreactivity |

Requested field: polyreactivity (PSR sort gate). Item: `QVQLVESGGGVVQAGGSLRLSCAASGSTLVVNGLGWYRQAPGKDRELVAAISWSGGTTYYADSVKGRFTISRDNAKNTVDLQMNSLKPEDTAVYYCAADSYTEVDYWGQGTQVTVSS`
low polyreactivity

Requested field: polyreactivity (PSR sort gate). Item: `QVQLVESGGGLVQAGGSLRLSCAASGIIFIYYAMGWYRQAPGKERELVAAISQSGVNTYYADSVKGRFTISRDNAKNTVYLQMNSLKPEDTAVYYCAADRYGHFGYWGQGTQVTVSS`
high polyreactivity

* * *

test: yeast display, Sf9 membrane polyspecificity reagent, FACS + sequencing; frameworks hold sequencing errors
metric: polyreactivity (PSR sort gate)

See these solved cases before continuing.
| sequence code | polyreactivity (PSR sort gate) |
| --- | --- |
| QDQLVESRGVLVQAGGTLRLSCAASGSTFVYYVMGWYRQAPVKERELVAAISWSDDSTYYADSVKGRFTISRDNAKNTVYLQMNSLIPVDTAVYYCAATGYPFYTSGDIEYYYWGQGTQVTVSS | low polyreactivity |
| QVQLVESGGGLVQAGGSLRLSCAASGIIFWSYTMGWYRQAPGKEREFVASLRKSGGSTYYADSVKGRFTISRDNSKNTVYLQMNSLKPEDTAVYYCAAVYRRYLGGGYDYWGQGTQVTVSS | high polyreactivity |
| QVQLVESGGGLVQAGGSLRLSCAASGRIFWGNAMGWYRQAPGKERELVAAITRRGGTTFYADSVKGRFTISRDNAKNTVYLQMNSLKPEDTAVYYCAARRYGQYDGYDSWGQGTQVTVSS | high polyreactivity |
| QVQLVESGGGLVQAGGSLRLSCAASGRIFRQYAMGWYRQAPGKERELVAAITSGGSTNYADSVKGRFTISRDNAKNTVYLQMNSLKPEDTAVYYCNARWPYAYQDGYWGQGTQVTVSS | low polyreactivity |
| QVQLVESGGGLVQAGGSLRLSCAASGLTFFGNAMGWYRQAPGKERELVATISSGGGTSYADSVKGRFTISRDNAKNTVYLQMNSLKPEDTAVYYCAADIVEEFDYWGQGTQVTVSS | low polyreactivity |
| QVQLVESGGGLFQAAGSLRLSCAASGLTFAYNAMGWYRQAPGKERELDAEISKRGGSTFYADSVKGRFTLSHVNAKNTVYLQMNSLKPEDTAVYYCARGSYPYRSFWLTSDDWGQGTQVTVSS | high polyreactivity |

Requested field: polyreactivity (PSR sort gate). Item: `QVQLVESGGGLVQAGGSLRLSCAASGIIFPEYDMGWYRQAPGKERELVAAITKSDGRTYYADSVKGRFTISRDNAKNTVYLQMNSLKPEDTAVYYCNADPRVVAYLGFDSWGQGTQVTVSS`
low polyreactivity

Requested field: polyreactivity (PSR sort gate). Item: `QDQLVESGGGLVQAGGSLRLSFAASGNIFRYYAMGWYRQAPGKERELVAAISRSGGNTYYADSVKGRFTISRDNAKNTVYLQMNSLKTEDTAVYYCAVVLSTYSYADYDYWGQGTQVTLSS`
high polyreactivity

Requested field: polyreactivity (PSR sort gate). Item: `QVQLVESGGGLVQAGGSLRLSCAASGIIFSDYTMGWYRQAPGKERELVAAITWSGASTYYADSVKGRFTISRDNAKNTVYLQMNSLKPEDTAVYYCAAREYWYPGYVSWFDYWGQGTQVTVSS`
high polyreactivity

Requested field: polyreactivity (PSR sort gate). Item: `QVQLVESGGGLVQAGGSLRLSCAASGIIFKGYAMGWYRQAPGKERELVAGITRNGGGTYYADSVKGRFTISRDNAKNTVYLQMNSLKPEDTAVYYCAARWDYSYRYRLYYWGQGTQVTVSS`
high polyreactivity

Requested field: polyreactivity (PSR sort gate). Item: `QVQLVESGGGLVQEGGSVRFSCAASGSISKPNARGWYRQAAGKERELVASITRGGIPNYADSVKGRVTISRDNAKNTVYLQMNSLKPEDTAVYDCAAFYAYSKYSYNIRFYYWGQGTQVTVAS`
high polyreactivity

* * *

assay: yeast display, Sf9 membrane polyspecificity reagent, FACS + sequencing; frameworks hold sequencing errors
metric: polyreactivity (PSR sort gate)

See these solved cases before continuing.
| sequence code | polyreactivity (PSR sort gate) |
| --- | --- |
| QVQLVESGGGLVQAGGSLRLSCAASGRIFDRYAMGWYREAPGKERELVAAISGSGGRTYYADSVKGRFTISRDNAKNTVYLQMNSLKPEDTAVYYCAVKFSLYGQGYPKGDYWGQGTQVTVSS | high polyreactivity |
| QVQLVESGGGLVQAGGSIRLSCAASGSTISHNAMGWYRQAPGKERELVAAITRGDSTNYADSVKGRFTNTRDNAKNTVYLEMNSLKPEDTAVYYCNANKWYRYDYWGQGTQVTVSS | low polyreactivity |
| QVQLVESGGGLVQEGGSLRLSCAASGFTFARYAMGWYRQSPGKERELVARISSRGGSTNFADSVKGRFTISRDNAKNTVYLQMNSLKPEDTAVYYCAKYYSSKYYYWGQGTQVTVSS | high polyreactivity |
| QVQLVESGGGLVQAGGSLRLSCAASGFTIFGYAMGWYRQAPGKERELVAAISTIDGDTYYADSVKGRFTISRDNAKNTVYLQMNSLKPEDTAVYYSAADDYIDGDDYWGQGTQVTVSS | low polyreactivity |

Requested field: polyreactivity (PSR sort gate). Item: `QVQLVESGGGLVQAGGSLRLSCAASGYTILSYGMGWYRQAPGKERELVADISSGDRTNYADSVKGRFTISRDNAKNTVYLQMNSLKPEDTAVYYCNADRASSSVGYSDDFGHDSWGQGTQVTVSS`
low polyreactivity

Requested field: polyreactivity (PSR sort gate). Item: `QVQLVESGGGLVQAGGSLRLSCAASGYIFLRNSLGWYRQAPGKERELVAAIRRTGGSTYYADSVKGRFTISRDNAKNTVYLQMNSLKPEDTAVYYCAKRSYTGYEYWGQGTQVTVSS`
low polyreactivity

Requested field: polyreactivity (PSR sort gate). Item: `QVQLVESGGGLVQAGGSLRLSCAASGITFVHYAMGWSRQAPGKERELVAAITVGDGGTYYADSVKGRFTISRDNAKNTVYLQMNSLKPEDTAVYYCAAGFYSYSWYVKLAYGYWGQGIQVTVSS`
low polyreactivity

Requested field: polyreactivity (PSR sort gate). Item: `QVQLVESGGGLVQAGGSLRLSCAASGTFVTYMGWSRQAPGKERELVAAIRNGGSTNNADTVKGRFTISRDNAKNTVYLQMNSLIPEDTAVYYCAPRFTYSRGYRGGSRTKYDYWGQGTQVTVSS`
low polyreactivity

Requested field: polyreactivity (PSR sort gate). Item: `QVQLVESGVGLVQAGGSLRLSCAASGSTFYAYAMGWNRQAPGKERELVAAISSDGTNYADSVKGRFTISRDNAKNTVYLQMNSLKPDDTAVYYCAADLLLYSSQDNDYWGQGTQVTVSS`
low polyreactivity

Requested field: polyreactivity (PSR sort gate). Item: `QVQLVESGGGLVQAGCSLRLSCAASGITFTYYAMGWYRQAPGKERELVAAINTGGNTNYADSVKGRFTISRDYAKNSVYLQMNSLKPEDTAVYYCAAYWYYYWWYDYWGQGTQVSVSS`
high polyreactivity

Requested field: polyreactivity (PSR sort gate). Item: `QVQLLESGCGLVQAGGSLRLSCMASGSILGDRMSWYRQAPGKEHELVATIYDGGITYYADSMKGRFTISRDNAKNTVYLQMNSLRPEDTAVYYCGASFEGYRYHVYCGQGTQVTVSS`
low polyreactivity

Requested field: polyreactivity (PSR sort gate). Item: `QVQLVESGGGLVQAGGSLRFSCAASGINIWTNVMGWYIQAPRKESEFVAAISRSGGSTYYADSVKGSFTISRDNAKNTVYLQMISLKPEDTAVYYCAARWSYSVQKFDYWGQGTQLTVSS`
high polyreactivity

Requested field: polyreactivity (PSR sort gate). Item: `QVQLVETGGGLVQAGGSLRLSCAASGSIFVYYAMRWYRQAPGKERELVAAITIGASTDYADSVKGRFTISRDNAKNTVYLQMISVKPEDTAVYNCAADLYYGDYRTLPKADEYDYWGQGTQVTVSS`
low polyreactivity

Requested field: polyreactivity (PSR sort gate). Item: `QVQLVESCGGLVQAGGSLRLSCAASGFTFYYYVMGWYRQAPGQERELVAAISRSGGNTYYADSVKGRFTISRDNAKNTVYLQMNRLKPEDTAVYYCNAVQYYPVYYWGQGTQVTVSS`
high polyreactivity

Requested field: polyreactivity (PSR sort gate). Item: `HLQLEESGVGLVQAGGSLRLSCAASGSTFTFNAMGWYRQAPAKSRELVAAIRWNGESTYYADSVKGRFSISRDNAKNTVYIQMNSLNPEDTAVYYCAATRLLSKSGDRYYYWGQGTQVTVSS`
low polyreactivity

Requested field: polyreactivity (PSR sort gate). Item: `QVQLVDSGGGLVQARGSLRLTCAASGRIYNLYAMGWYRQAPGKERELVAAIRGRGTSTYYADSVKVRFTISRDKAKNTVYFQMNSLKPEDTAVYYCASEGGYGPTLQDTSRYEYWGQGTQVTVSS`
low polyreactivity
